Values from BigSolDB 2.1

conditions: in n-propyl acetate, 303.15 K
Endpoint: solubility (mole fraction)

{"columns": ["Compound", "Reported measurement"],
 "data": [
  ["CC(C)(C)C(O)/C(=C\\c1ccc(Cl)cc1)n1cncn1 (stereo unspecified)", 0.0277]
]}

* * *

settings: in methyl acetate, 293.15 K

{"columns": ["Molecule", "solubility (mole fraction)"],
 "data": [
  ["CC(C)(C)C(O)/C(=C\\c1ccc(Cl)cc1)n1cncn1 (stereo unspecified)", 0.0137]
]}

* * *

settings: in isopropanol, 283.15 K
Endpoint: solubility (mole fraction)

{"columns": ["Compound", "Reported measurement"],
 "data": [
  ["CC(C)(C)C(O)/C(=C\\c1ccc(Cl)cc1)n1cncn1 (stereo unspecified)", 0.0122]
]}

* * *

conditions: in ethylene glycol, 293.15 K

{"columns": ["Compound", "solubility (mole fraction)"],
 "data": [
  ["CC(C)(C)C(O)/C(=C\\c1ccc(Cl)cc1)n1cncn1 (stereo unspecified)", 0.00118]
]}

* * *

details: in isobutanol, 303.15 K
Endpoint: solubility (mole fraction)

{"columns": ["Molecule", "Reported measurement"],
 "data": [
  ["CC(C)(C)C(O)/C(=C\\c1ccc(Cl)cc1)n1cncn1 (stereo unspecified)", 0.0257]
]}

* * *

conditions: in methyl acetate, 278.15 K
Endpoint: solubility (mole fraction)

{"columns": ["Compound", "Endpoint", "Reported measurement"],
 "data": [
  ["CC(C)(C)C(O)/C(=C\\c1ccc(Cl)cc1)n1cncn1 (stereo unspecified)", "solubility (mole fraction)", 0.0084]
]}

* * *

conditions: in ethyl acetate, 298.15 K

{"columns": ["Compound", "solubility (mole fraction)"],
 "data": [
  ["CC(C)(C)C(O)/C(=C\\c1ccc(Cl)cc1)n1cncn1 (stereo unspecified)", 0.0187]
]}

* * *

settings: in n-butanol, 303.15 K

{"columns": ["Compound", "solubility (mole fraction)"],
 "data": [
  ["CC(C)(C)C(O)/C(=C\\c1ccc(Cl)cc1)n1cncn1 (stereo unspecified)", 0.0309]
]}

* * *

conditions: in n-octanol, 283.15 K
Endpoint: solubility (mole fraction)

{"columns": ["Compound", "Reported measurement"],
 "data": [
  ["CC(C)(C)C(O)/C(=C\\c1ccc(Cl)cc1)n1cncn1 (stereo unspecified)", 0.0177]
]}

* * *

conditions: in n-butanol, 278.15 K

{"columns": ["Compound", "solubility (mole fraction)"],
 "data": [
  ["CC(C)(C)C(O)/C(=C\\c1ccc(Cl)cc1)n1cncn1 (stereo unspecified)", 0.015]
]}

* * *

conditions: in n-propanol, 308.15 K

{"columns": ["Molecule", "solubility (mole fraction)"],
 "data": [
  ["CC(C)(C)C(O)/C(=C\\c1ccc(Cl)cc1)n1cncn1 (stereo unspecified)", 0.0273]
]}

* * *

conditions: in n-propanol, 318.15 K
Endpoint: solubility (mole fraction)

{"columns": ["Compound", "Reported measurement"],
 "data": [
  ["CC(C)(C)C(O)/C(=C\\c1ccc(Cl)cc1)n1cncn1 (stereo unspecified)", 0.0441]
]}

* * *

conditions: in n-octanol, 318.15 K
Endpoint: solubility (mole fraction)

{"columns": ["Compound", "Reported measurement"],
 "data": [
  ["CC(C)(C)C(O)/C(=C\\c1ccc(Cl)cc1)n1cncn1 (stereo unspecified)", 0.044]
]}

* * *

settings: in water, 303.15 K
Endpoint: solubility (mole fraction)

{"columns": ["Molecule", "Reported measurement"],
 "data": [
  ["CC(C)(C)C(O)/C(=C\\c1ccc(Cl)cc1)n1cncn1 (stereo unspecified)", "2.8e-06"]
]}
